Measured EC50, listed per entry for reference.
- assayed_target: T1, human CD73-His protein (human, UniProt P21589 27-549)
- T1 construct: Expressed in HEK-293F with a signal peptide that is not specified; In the ELISAs it was biotinylated with EZ-Link NHS-Biotin (CD73-biotin) and captured on streptavidin; in SPR and the enzyme assay it was used as CD73-His; also called CD73-his antigen; CD73-biotin
- T1 sequence: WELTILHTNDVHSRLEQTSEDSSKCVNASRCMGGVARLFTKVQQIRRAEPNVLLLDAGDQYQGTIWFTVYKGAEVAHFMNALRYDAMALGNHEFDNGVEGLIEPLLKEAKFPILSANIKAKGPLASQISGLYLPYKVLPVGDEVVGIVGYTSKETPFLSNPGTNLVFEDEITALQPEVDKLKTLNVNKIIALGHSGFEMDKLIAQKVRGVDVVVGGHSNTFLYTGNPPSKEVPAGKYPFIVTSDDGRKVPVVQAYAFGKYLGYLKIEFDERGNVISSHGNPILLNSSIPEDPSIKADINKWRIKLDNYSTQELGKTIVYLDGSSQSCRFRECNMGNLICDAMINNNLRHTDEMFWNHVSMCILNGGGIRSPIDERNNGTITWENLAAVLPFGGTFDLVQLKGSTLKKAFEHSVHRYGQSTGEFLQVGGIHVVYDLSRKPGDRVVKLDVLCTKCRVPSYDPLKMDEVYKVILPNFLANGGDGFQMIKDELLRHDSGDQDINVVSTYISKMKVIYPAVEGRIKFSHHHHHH
- method: ELISA, biotinylated CD73-His on streptavidin plate

Please review the following examples before continuing.
binder: 48A11-ch (antibody, human IgG4 S228P, kappa, V domains shown, Chimeric: murine variable regions spliced with human IgG4 (S228P) and human kappa constant regions; also called chimeric antibody 48A11-ch) VH: QVQLQQPGAELVKPGASVKLSCKASGYTFTSYWMHWVKQRPGQGLEWIGEINPSIGRTNYNEKFKSKATLTVDKSSSTAFMQLSSLTSEDSAVYYCARRVYGTMDYWGQGTSVTVSS VL: DIKMTQSPSSMYASLGERVTITCKASQDINSYLSWFQQKPGKSPKTLIYRANIWVDGVPSRFSGSGSGQDYSLTISSLEYEDMGIYYCLQYDELYTFGGGTKLEIKR
EC50: 0.067 nM
--
binder: 56B10 (antibody, V domains shown, Murine hybridoma antibody; also called murine-derived antibody 56B10) VH: QVQLQQSGPELVKPGASVRISCKTSGYTFTRYYIYWVKQRPGQGLEWIGWIYPGNFNTKYNEKFKGKATLTADTSSSTAYMQLSSLTSEDSAVYFCARDVYDYAGFAYWGQGTLVTVSA VL: DIVMTQSHRFLSTSVGDRVSITCKASQGVATAVAWYQQKPGQSPKLLIYWASTRHTGVPDRFTGSGSGTDFTLTISNVQSEDLADYFCQQYSSYPWTFGGGTKLEIK
EC50: 0.0269 µg/mL

The record that follows has no EC50 shown yet.
Q: // returns reported EC50 for input 56B10-ch (antibody, human IgG4 S228P, kappa, V domains shown, Chimeric: murine variable regions spliced with human IgG4 (S228P) and human kappa constant regions; also called chimeric antibody 56B10-ch) VH: QVQLQQSGPELVKPGASVRISCKTSGYTFTRYYIYWVKQRPGQGLEWIGWIYPGNFNTKYNEKFKGKATLTADTSSSTAYMQLSSLTSEDSAVYFCARDVYDYAGFAYWGQGTLVTVSA VL: DIVMTQSHRFLSTSVGDRVSITCKASQGVATAVAWYQQKPGQSPKLLIYWASTRHTGVPDRFTGSGSGTDFTLTISNVQSEDLADYFCQQYSSYPWTFGGGTKLEIKR
Ans: 0.09 nM
